- experimental_system: human IL8B receptor (Homo sapiens)
- Sequence (P25025 whole entry): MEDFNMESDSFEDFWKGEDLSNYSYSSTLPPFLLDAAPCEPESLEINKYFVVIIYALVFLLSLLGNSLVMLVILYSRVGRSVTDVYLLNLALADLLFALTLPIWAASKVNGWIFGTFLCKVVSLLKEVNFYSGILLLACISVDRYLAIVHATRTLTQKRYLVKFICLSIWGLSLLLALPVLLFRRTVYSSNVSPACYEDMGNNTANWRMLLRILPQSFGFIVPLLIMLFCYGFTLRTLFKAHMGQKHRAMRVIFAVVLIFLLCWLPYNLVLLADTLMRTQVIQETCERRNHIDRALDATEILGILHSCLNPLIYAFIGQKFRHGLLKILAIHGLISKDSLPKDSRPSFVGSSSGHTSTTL
- test_description: Functional reporter assay for IL8B receptor antagonists (aequorin Ca2+ bioluminescence in transfected CHO cells)
- assay_conditions: CHO cells with mitochondrially localized aequorin, human IL8B receptor and G-alpha-16; inhibition of IL8-induced Ca2+ transient
Doc: threshold 90 nM (exclusive). Items with IC50 beneath it return Yes; others return No.

> print(dat)
                                   compound  qualitative.label
1  CCC(C(=O)Nc1ccc(-c2cc3ccccc3s2)c(C(N)=O)c1)c1cccc(F)c1 (stereo not shown) [Example 30]                Yes
2  CCC(C(=O)Nc1ccc(-c2cc3ccccc3s2)c(C(N)=O)c1)c1ccccc1 (single isomer, unassigned) [Example 1-2]                 No
3  CCC(C(=O)Nc1ccc(-c2cc3ccccc3s2)c(C(N)=O)c1)c1nccs1 (stereo not shown) [Example 26]                Yes
4  CCC(C(=O)Nc1ccc(-c2ccc3sccc3c2)c(C(N)=O)c1)c1ccccc1 (single isomer, unassigned) [Example 39-2]                Yes
5  CCC(C(=O)Nc1ccc(-c2cc3ccccc3s2)c(C(N)=O)c1)c1ccc2c(c1)OCCO2 (stereo not shown) [Example 35]                Yes
6  CCOc1ccc2cc(-c3ccc(NC(=O)C(CC)c4ccccc4)cc3C(N)=O)ccc2c1 (stereo not shown) [Example 2]                 No
